- EXPERIMENTAL_SYSTEM: ERK1 (Homo sapiens)
- Construct: purchased Jubilant Biosys
- Sequence (P27361 whole entry): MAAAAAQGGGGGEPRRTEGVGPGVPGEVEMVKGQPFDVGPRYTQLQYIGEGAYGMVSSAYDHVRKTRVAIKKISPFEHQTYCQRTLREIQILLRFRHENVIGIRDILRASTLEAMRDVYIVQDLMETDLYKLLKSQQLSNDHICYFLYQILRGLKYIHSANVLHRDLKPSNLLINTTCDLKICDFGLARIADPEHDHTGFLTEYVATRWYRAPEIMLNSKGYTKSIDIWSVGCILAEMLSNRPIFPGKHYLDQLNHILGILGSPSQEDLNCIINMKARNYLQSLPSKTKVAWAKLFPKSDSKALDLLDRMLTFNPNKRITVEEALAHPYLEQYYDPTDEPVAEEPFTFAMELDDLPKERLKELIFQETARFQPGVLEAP
- ASSAY_OVERVIEW: ERK1 HTRF (biochemical) assay
- EXPERIMENTAL_CONDITIONS: HTRF
pIC50: −log10 of the molar value.
OUTCOME_MEASURE: pIC50

Recorded pIC50, per entry:
>  <COMPOUND>
O=C(NC(CO)c1cccc(Cl)c1)c1ccn(-c2ccnc(NC3CCNC3)c2)c1 (stereo not shown)

>  <pIC50>
< 5.60

$$$$
>  <COMPOUND>
Cc1cnc(NC2CCOCC2)nc1-n1cnc(C(=O)NCc2sccc2CN)c1

>  <pIC50>
> 7.30

$$$$
>  <COMPOUND>
Cc1cnc(NC2CCN(C)C2)nc1-n1ccc(C(=O)N[C@H](CO)c2cccc(Cl)c2)c1 (stereo partly shown)

>  <pIC50>
> 7.30

$$$$
>  <COMPOUND>
Cc1ccc(C(CO)NC(=O)c2cn(-c3nc(NC4CCOCC4)ncc3C)cn2)s1 (stereo not shown)

>  <pIC50>
> 7.30

$$$$
>  <COMPOUND>
Cc1cccc([C@@H](CO)NC(=O)c2ccn(-c3nc(N[C@H]4CCOC4)ncc3C)c2)n1

>  <pIC50>
> 7.30

$$$$
>  <COMPOUND>
Cc1cnc(NC2CCCOC2)nc1-n1ccc(C(=O)N[C@H](CO)c2cccc(Cl)c2)c1 (stereo partly shown) [Compound 152]

>  <pIC50>
> 7.30

$$$$
>  <COMPOUND>
O=C(N[C@H](CO)c1cccc(Cl)c1)c1ccn(-c2ccnc(Nc3ccc(F)cc3Cl)n2)c1

>  <pIC50>
> 7.30

$$$$
>  <COMPOUND>
CC(=O)NCC(NC(=O)c1ccn(-c2nc(Nc3ccc4c(c3)OC(F)(F)O4)ncc2C)c1)c1cccc(Cl)c1 (stereo not shown)

>  <pIC50>
6.30 to 7.00

$$$$

Ask: Would you mind telling me what pIC50 value was observed for Cc1cnc(Nc2ccc3c(c2)OCO3)nc1-n1cc(NC(=O)N[C@H](CO)c2cccc(Cl)c2)cn1 ?
Reply: 7.00 to 7.30

Ask: Fill blank: measured pIC50 of the compound Cc1cnc(Nc2ccc(F)c(N3CCOCC3)c2)nc1-n1cnc(C(=O)NC(CO)c2cccc(Cl)c2)c1 (stereo not shown) is ____.
Reply: > 7.30

Cited source for all entries: patent US9896445B2
